Assay: melting temperature; UV melt of duplexes
Conditions: sodium 0.62 M; strand 2 µM

| substance | Tm [°C] |
| --- | --- |
| GACCTGACGTGGACCGCTCCTGGGCGTGGT+ACCACGCCCAGGAGCGGTCCACGTCAGGTC ((((((((((((((((((((((((((((((+)))))))))))))))))))))))))))))) | 85.2 |
| AGCAGTCCGCCACACCCTGA+TCAGGGTGTGGCGGACTGCT ((((((((((((((((((((+)))))))))))))))))))) | 76.9 |
| TGGATTCTACTCAACCTTAGTCTGG+CCAGACTAAGGTTGAGTAGAATCCA (((((((((((((((((((((((((+))))))))))))))))))))))))) | 71.3 |
| ATGCAATGCTACATATTCGC+GCGAATATGTAGCATTGCAT ((((((((((((((((((((+)))))))))))))))))))) | 67 |
| CAGCCTCGTTCGCACAGCCC+GGGCTGTGCGAACGAGGCTG ((((((((((((((((((((+)))))))))))))))))))) | 77.7 |
| TAGTGGCGATTAGATTCTGC+GCAGAATCTAATCGCCACTA ((((((((((((((((((((+)))))))))))))))))))) | 69.1 |

====

Test: melting temperature; melt of duplexes
Conditions: sodium 0.0675 M; strand 1 µM

| substance | Tm / °C |
| --- | --- |
| CGACGTGCCTCATGTGCTG+CAGCACATGTGGCACGTCG (((((((((.(((((((((+))))))))).))))))))) | 59.8 |
| CGACGTGCAACATGTGCTG+CAGCACATTAAGCACGTCG ((((((((...((((((((+))))))))...)))))))) | 49.2 |
| CGACGTGCGGAATGTGCTG+CAGCACATACAGCACGTCG ((((((((.(.((((((((+)))))))).).)))))))) | 54.9 |
| CGACGTGCAACATGTGCTG+CAGCACATAGAGCACGTCG ((((((((...((((((((+))))))))...)))))))) | 48.9 |
| CGACGTGCTCGATGTGCTG+CAGCACATGTCGCACGTCG ((((((((...((((((((+))))))))...)))))))) | 48.2 |
| CGACGTGCAGTATGTGCTG+CAGCACATAGCGCACGTCG ((((((((..(((((((((+)))))))))..)))))))) | 51.7 |
| CGACGTGCATGATGTGCTG+CAGCACATTAGGCACGTCG ((((((((.(.((((((((+)))))))).).)))))))) | 54 |
| CGACGTGCTGTATGTGCTG+CAGCACATGATGCACGTCG ((((((((...((((((((+))))))))...)))))))) | 51.3 |
| CGACGTGCCGAATGTGCTG+CAGCACATACGGCACGTCG ((((((((((.((((((((+)))))))).)))))))))) | 60.1 |
| CGACGTGCTTCATGTGCTG+CAGCACATTGTGCACGTCG ((((((((...((((((((+))))))))...)))))))) | 44.4 |
| CGACGTGCTCTATGTGCTG+CAGCACATTACGCACGTCG ((((((((...((((((((+))))))))...)))))))) | 47.8 |
| CGACGTGCCTCATGTGCTG+CAGCACATAGCGCACGTCG ((((((((...((((((((+))))))))...)))))))) | 49.6 |
| CGACGTGCCGGATGTGCTG+CAGCACATTAGGCACGTCG (((((((((..((((((((+))))))))..))))))))) | 57 |
| CGACGTGCTTTATGTGCTG+CAGCACATAAAGCACGTCG (((((((((((((((((((+))))))))))))))))))) | 61 |
| CGACGTGCGCGATGTGCTG+CAGCACATACTGCACGTCG ((((((((...((((((((+))))))))...)))))))) | 50.3 |

====

Assay: melting temperature; UV melt of duplexes
Settings: sodium 0.12 M; strand 4 µM
parameter-measured: Tm (°C)

| substance | parameter-measured | reported |
| --- | --- | --- |
| ATACGCGAGGATCCAGCGCAAT+ATTGCGCTGGATCCTCGCGTAT ((((((((((((((((((((((+)))))))))))))))))))))) | Tm | 71.1 |
| AGATCATATATATCGAT+ATCGATATATATGATCT (((((((((((((((((+))))))))))))))))) | Tm | 49.2 |
| GCGGATTAGGATCCATATCGCG+CGCGATATGGATCCTAATCCGC ((((((((((((((((((((((+)))))))))))))))))))))) | Tm | 65.4 |
| AATATATAGCTATCGAT+ATCGATAGCTATATATT (((((((((((((((((+))))))))))))))))) | Tm | 49.7 |

====

Assay: melting temperature; melt of duplexes
Settings: sodium 0.0675 M; strand 1 µM
Listed here: items and their measured Tm.

| substance | Tm [°C] |
| --- | --- |
| CGACGTGCGAGATGTGCTG+CAGCACATCAAGCACGTCG ((((((((..(((((((((+)))))))))..)))))))) | 58.6 |
| CGACGTGCATAATGTGCTG+CAGCACATAGAGCACGTCG ((((((((...((((((((+))))))))...)))))))) | 48.7 |
| CGACGTGCAGCATGTGCTG+CAGCACATATGGCACGTCG ((((((((...((((((((+))))))))...)))))))) | 46.7 |
| CGACGTGCCACATGTGCTG+CAGCACATTAGGCACGTCG (((((((((..((((((((+))))))))..))))))))) | 54.2 |

====

Assay: melting temperature; UV melt of duplexes
Conditions: sodium 0.07 M; strand 2 µM

| substance | unit-abbreviation | Tm |
| --- | --- | --- |
| GTGGTGGGCCGTGCGCTCTG+CAGAGCGCACGGCCCACCAC ((((((((((((((((((((+)))))))))))))))))))) | °C | 69.2 |
| CTTCAACGGATCAGGTAGGACTGTGGTGGG+CCCACCACAGTCCTACCTGATCCGTTGAAG ((((((((((((((((((((((((((((((+)))))))))))))))))))))))))))))) | °C | 67.6 |
| TCCACACGGTAGTAAAATTAGGCTT+AAGCCTAATTTTACTACCGTGTGGA (((((((((((((((((((((((((+))))))))))))))))))))))))) | °C | 59.3 |
| AGCAGTCCGCCACACCCTGA+TCAGGGTGTGGCGGACTGCT ((((((((((((((((((((+)))))))))))))))))))) | °C | 66.5 |
| CTTAAGATATGAGAACTTCAACTAATGTGT+ACACATTAGTTGAAGTTCTCATATCTTAAG ((((((((((((((((((((((((((((((+)))))))))))))))))))))))))))))) | °C | 56.8 |
| TTCCAAAAGGAGTTATGAGTTGCGA+TCGCAACTCATAACTCCTTTTGGAA (((((((((((((((((((((((((+))))))))))))))))))))))))) | °C | 59.1 |
| ACGCCCACAGGATTAGGCTGGCCCACATTG+CAATGTGGGCCAGCCTAATCCTGTGGGCGT ((((((((((((((((((((((((((((((+)))))))))))))))))))))))))))))) | °C | 71.3 |
| TAGTATATCGCAGCATCATACAGGC+GCCTGTATGATGCTGCGATATACTA (((((((((((((((((((((((((+))))))))))))))))))))))))) | °C | 61.2 |
| CAGTGAGACAGCAATGGTCG+CGACCATTGCTGTCTCACTG ((((((((((((((((((((+)))))))))))))))))))) | °C | 59.8 |
| CCCTGCACTTTAACTGAATTGTTTA+TAAACAATTCAGTTAAAGTGCAGGG (((((((((((((((((((((((((+))))))))))))))))))))))))) | °C | 57.4 |
| ATGCAATGCTACATATTCGC+GCGAATATGTAGCATTGCAT ((((((((((((((((((((+)))))))))))))))))))) | °C | 55.2 |
| CAGTGGGCTCCTGGGCGTGCTGGTC+GACCAGCACGCCCAGGAGCCCACTG (((((((((((((((((((((((((+))))))))))))))))))))))))) | °C | 72 |
| AGCTGCAGTGGATGTGAGAA+TTCTCACATCCACTGCAGCT ((((((((((((((((((((+)))))))))))))))))))) | °C | 59.7 |
